assayed-system: T1, GST-DVL1 PDZ domain fusion protein (human, UniProt O14640 247-339)
T1 construct: also called human dishevelled segment polarity protein homolog; not shown: glutathione S-transferase encoded by vector pGEX-3X (Pharmacia)
T1 sequence: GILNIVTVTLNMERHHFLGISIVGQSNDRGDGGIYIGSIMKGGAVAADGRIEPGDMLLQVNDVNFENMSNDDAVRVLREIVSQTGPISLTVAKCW
test-details: A/G assays
Ends that are not written are not given here. * marks the point of attachment. Biotin = O=C1N[C@H]2[C@H](CS[C@H]2CCCCC(=O)*)N1
measured-attribute: binding result

Worked examples, 5 binders total:
- binder: "Biotin-KENDYESISDLQQGRDITRL (also called Phosphoprotein Associated with GEMs) [PAG C-terminal peptide AA58L, biotinylated]"
  binding result: "no binding"
- binder: "Biotin-ARHRVTSYTSSSVNVSSNL [CDW128A (IL8RA) C-terminal peptide AA29.1L, biotinylated]"
  binding result: "no binding"
- binder: "Biotin-KKGTYLTDETHREVKFTSL [CD46 (Form 1) C-terminal peptide AA10L, biotinylated]"
  binding result: "no binding"
- binder: "Biotin-ENLAPVTTFGKTNGYIA (also called CD148 (DEP-1)) [CD148 C-terminal peptide AA19L, biotinylated]"
  binding result: "no binding"
- binder: "Biotin-ISKATPALPTVSISSSAEV (also called AA1L-R) [Clasp-1 C-terminal peptide AA1L, biotinylated]"
  binding result: "no binding"

Fill in binding result for record Biotin-AWDDSARAAGGQGLHVTAL [LPAP C-terminal peptide AA30L, biotinylated]
no binding

Give reported binding result value for Biotin-QFMTADETRNLQNVDMKIGV (also called CD44 (long form)) [CD44 C-terminal peptide AA9L, biotinylated]
no binding

In one line, give reported binding result of the entry Biotin-CAISGTSSDRGYGSPRYAEV (also called AA3L-V) [Clasp-4 C-terminal peptide AA3L, biotinylated] .
no binding

Dear colleague, please send me the reported binding result for Biotin-YSATYSELEDPGEMSPPIDL (also called FceRlb; FcεRβI) [FceRIb C-terminal peptide AA25L, biotinylated] when you can.
no binding
